# measuredTarget: Fatty-acid amide hydrolase 1 (Rattus norvegicus) (UniProt P97612)
# Sequence (whole entry): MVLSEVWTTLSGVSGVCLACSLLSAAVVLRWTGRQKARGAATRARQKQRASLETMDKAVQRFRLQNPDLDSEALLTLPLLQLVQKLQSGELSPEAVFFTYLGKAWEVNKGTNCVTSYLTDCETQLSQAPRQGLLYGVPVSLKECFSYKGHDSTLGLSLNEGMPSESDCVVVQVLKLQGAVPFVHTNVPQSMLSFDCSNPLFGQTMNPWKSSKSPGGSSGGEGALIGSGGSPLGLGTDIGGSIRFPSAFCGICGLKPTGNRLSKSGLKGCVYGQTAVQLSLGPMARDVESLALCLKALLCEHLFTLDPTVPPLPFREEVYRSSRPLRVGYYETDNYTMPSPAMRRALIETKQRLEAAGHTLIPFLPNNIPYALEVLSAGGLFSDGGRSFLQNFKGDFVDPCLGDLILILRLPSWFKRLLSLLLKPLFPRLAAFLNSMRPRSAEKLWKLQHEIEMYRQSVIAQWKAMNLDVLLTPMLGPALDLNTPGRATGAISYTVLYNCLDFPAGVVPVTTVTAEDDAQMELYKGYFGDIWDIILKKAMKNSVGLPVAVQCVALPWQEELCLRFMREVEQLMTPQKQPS
# runDescription: Relative rate of fatty acid amide hydrolase hydrolysis of compound compared to that of oleamide.
Give measured Relative rate of hydrolysis for each item. Keep answers brief.
Numbers only.

// known answers, use as guide
| compound | observedMeasurement |
| --- | --- |
| CCCCCCCC/C=C/CCCCCCC(C)(C)C(N)=O | 0.03 |
| CCCCCCCCCCCCCCCCCC(N)=O | 0.69 |
| CCCCCCCCCCC/C=C\CCCCC(N)=O | 0.91 |

Please give Relative rate of hydrolysis, item by item, for the list that follows.
1. CCCCC/C=C/C/C=C/CCCCCCCC(N)=O (stereo in doubt; 22)
2. CCCCCCCC/C=C\CCCCCCCCCC(N)=O
3. CCCCCCCCCC/C=C\CCCCCC(N)=O
4. CC/C=C/C/C=C/C/C=C/C/C=C/C/C=C/C/C=C/CCC(N)=O
5. CCCCCCCC/C=C\CCCCCCCC(N)=O

Resp:
0.54
1.05
1.09
0.82
1

Hi team, please reply with Relative rate of hydrolysis for each item in this list.
1. C1CCCCCCNCCCCC1
2. CCCC/C=C\CCCCCCCCCCCC(N)=O
3. CCCCC/C=C\C/C=C\C/C=C\C/C=C\CCCC(=O)NCCO
4. CCCCCCCC/C=C/CCCCCCCCCCCC(N)=O

Resp:
0.74
0.82
1.68
0.83

I'm hoping you can list Relative rate of hydrolysis for every compound here, please.
1. CCCCC/C=C/C/C=C/CCCCCCCCCC(N)=O
2. CC/C=C/C/C=C/C/C=C/CCCCCCCC(N)=O
3. CCCCCCCC/C=C/CCCCCCC(C)C(N)=O (stereo not drawn)
4. CCCC/C=C/CCCCCCCC(N)=O

Resp:
1. 1.27
2. 1.38
3. 0.07
4. 0.86

State the recorded Relative rate of hydrolysis for every item in the following list.
1. CCCCCCCCCCCCCCCC(N)=O
2. CCCCCCCCCCCCCC/C=C\CCCC(N)=O
3. CC/C=C/C/C=C/C/C=C/CCCCCCCCCC(N)=O
4. CC/C=C\CCCCCCCCCCCCCC(N)=O
5. CCCCC/C=C/C/C=C/CCCCCCCC(N)=O (stereo in doubt; 21)
6. CCCCCC/C=C\CCCCCCCCCCCC(N)=O
7. CCCCC/C=C/C/C=C/C/C=C/CCCCCCC(N)=O
8. CCCCCCCC/C=C/CCCCCCCC(N)=O

Resp:
1. 0.72
2. 1.16
3. 1.4
4. 0.9
5. 1.04
6. 1.03
7. 1.38
8. 0.52

Give Relative rate of hydrolysis for each listed item.
1. CCCCCCCCCCC/C=C\CCCCCCC(N)=O
2. CCCCC/C=C\CCCCCCCCCCC(N)=O
3. CCCCCCCCCCCCCC(N)=O

Resp:
1. 1.12
2. 0.92
3. 0.83
